# study target: T1, cynomolgus monkey IL-2Rγ/CD132 subunit (cynomolgus monkey, UniProt A0A2K5VGJ6 23-262)
# T1 construct: also called Cyno IL-2R subunit
# T1 sequence: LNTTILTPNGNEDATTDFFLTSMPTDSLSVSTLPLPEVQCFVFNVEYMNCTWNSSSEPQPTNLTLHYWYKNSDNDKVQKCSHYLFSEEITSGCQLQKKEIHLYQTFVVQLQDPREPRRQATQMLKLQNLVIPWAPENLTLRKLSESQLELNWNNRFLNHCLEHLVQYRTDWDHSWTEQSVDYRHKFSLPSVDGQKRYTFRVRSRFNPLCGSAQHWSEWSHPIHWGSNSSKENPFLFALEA
# experimental protocol: ELISA, bivalent; EC50 cyno vs human subunit

>  <binder>
27-MP04G01 VHH-hFc, monospecific bivalent (Fc fusion, IgG1 Fc LALA-PG; not shown: human IgG1 CH2 and CH3 domains (Fc)) QVQLVESGGGLVQAGGSLTLSCAAPGRTFGTDVVGWFRQAPGKEREFVASISRSGDGIYYDDSVKGRFTISRNNAWNTVNLQMNSLKVEDTAVYYCAAGDGWSTYDYWGQGTQVTVSS

>  <Fold change, fold>
1.1

$$$$
>  <binder>
29-MP04H02 VHH-hFc, monospecific bivalent (Fc fusion, IgG1 Fc LALA-PG; not shown: human IgG1 CH2 and CH3 domains (Fc)) QVQLVESGGGLVQAGGSLRLACVASGLTFDNYYMGWFRQAPGKEREFVAGIIWNGDHTAYADSIKGRFTISRDNAKNTAYLRMNSLKPEDTAVYYCAATFWIERATTPDIGQYAYWGQGTQVTVSS

>  <Fold change, fold>
1.4

$$$$
>  <binder>
34-MP04A12 VHH-hFc, monospecific bivalent (Fc fusion, IgG1 Fc LALA-PG; not shown: human IgG1 CH2 and CH3 domains (Fc)) QVQLVESGGGLVQAGSSLRLSCAASGRTLSRLAMGWFRQAPGKEREFVAVNSWGGDTFYADSVEGRFTYSRDNAKSAVYLQMNSLQPEDTAVYYCAAAPTSFATTAYSSSNSYAYWGQGAQVTVSS

>  <Fold change, fold>
1

$$$$
>  <binder>
37-MP07F09 VHH-hFc, monospecific bivalent (Fc fusion, IgG1 Fc LALA-PG; not shown: human IgG1 CH2 and CH3 domains (Fc)) QVQLVESGGGLVQAGGSLRLSCAASGRTLSRYAMGWFRQAPGKEREYVAIDSWGGDTFYADSVEGRFTFSRDNAKNEVYLQMNSLQPEDTAVYYCAGAPTSFATTAYSSSNSYRYWGQGTQVTVSS

>  <Fold change, fold>
1

$$$$
>  <binder>
38-MP07A11 VHH-hFc, monospecific bivalent (Fc fusion, IgG1 Fc LALA-PG; not shown: human IgG1 CH2 and CH3 domains (Fc)) QVQLVESGGGLVQAGGSLRLSCAASGRSLSRDAMGWFRQAPGKEREFVAVMSWGGDTFYTDSVEGRFTFSRDNAKNAVYLEMNDLQPEDTAVYYCAAAPTSFATTAYSSSNSYSYWGRGTQVTVSS

>  <Fold change, fold>
1.2

$$$$
>  <binder>
28-MP04D02 VHH-hFc, monospecific bivalent (Fc fusion, IgG1 Fc LALA-PG; also called clone 28; not shown: human IgG1 CH2 and CH3 domains (Fc)) QVQLVESGGGLVQAGGSLRLSCAASGRTLSRYAMGWFRQAPGKEREFVTANSWGGDTYYADSVQGRFTFSRDNAKNTVYLQMNSLQPEDTAVYYCAAAPTSFATTAYSGSNSYAYWGQGTQVTVSS

>  <Fold change, fold>
1.1

$$$$
>  <binder>
36-MP07F02 VHH-hFc, monospecific bivalent (Fc fusion, IgG1 Fc LALA-PG; not shown: human IgG1 CH2 and CH3 domains (Fc)) QVQLVESGGGLVQAGGSLRLSCAASGRTLSRYAMGWFRQAPGSEREFVAASSWGGDTFYADSVEGRFTFSRDNAKNAVYLQMNSLQPEDTAAYYCAAAPTSFPTTAYSSSNSYAYWGQGTQVTVSS

>  <Fold change, fold>
1

$$$$

# credit: patent US20240409645A1
